Where these numbers come from: patent US8193223B2

Consider the following compounds and their measured Sigma-1 Inhibition percent (0.1 μM) readings.
biological target: sigma-1 receptor (Cavia porcellus, UniProt Q60492); construct: from tissue; host or cells: guinea pig brain membranes; experiment: [3H](+)-pentazocine binding assay for the sigma-1 receptor in guinea pig brain membranes; conditions: compound 0.1 μM, [3H](+)-pentazocine 0.5 nM
Sequence (Q60492 whole entry): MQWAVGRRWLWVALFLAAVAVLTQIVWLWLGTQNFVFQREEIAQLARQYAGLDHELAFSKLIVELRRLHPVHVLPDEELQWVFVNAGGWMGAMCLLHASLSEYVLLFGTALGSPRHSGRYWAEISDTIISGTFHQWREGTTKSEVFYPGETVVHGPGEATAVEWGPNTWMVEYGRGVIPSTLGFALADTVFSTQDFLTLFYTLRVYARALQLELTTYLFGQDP
Please reply with the value in numeric form only.

In the examples that follow, each entry is paired with its recorded Sigma-1 Inhibition percent (0.1 μM).
The compound listed as c1ccc(-c2cnn(CCCN3CCCCC3)n2)cc1 [compound 20] shows Sigma-1 Inhibition percent (0.1 μM) equal to 82.2

Note to self: Sigma-1 Inhibition percent (0.1 μM) recorded for Cc1nn(CCCN2CCCCC2)nc1-c1ccccc1 [compound 19] was 78.5

So, Clc1ccc(-c2nn(CCCN3CCCCCC3)nc2-c2ccccc2)cc1 [compound 6] ? Its Sigma-1 Inhibition percent (0.1 μM) was 52.5

Looking up Clc1ccc(-c2nn(CCCCN3CCCCC3)nc2-c2ccccc2)cc1 [compound 10] , I see its Sigma-1 Inhibition percent (0.1 μM) listed as 59.1

Alright, here's another compound for you.
The compound identified as Fc1cc(Br)ccc1-c1cnn(CCCN2CCCCC2)n1 [compound 21] registered its Sigma-1 Inhibition percent (0.1 μM) at 83.4

----------
biological target: sigma-1 receptor (Cavia porcellus, UniProt Q60492); construct: from tissue; host or cells: guinea pig brain membranes; test: [3H](+)-pentazocine binding assay for the sigma-1 receptor in guinea pig brain membranes; details: compound 0.01 μM, [3H](+)-pentazocine 0.5 nM
observation-type: Sigma-1 Inhibition percent (0.01 μM)

Take a look at these entries with their results.
Reported Sigma-1 Inhibition percent (0.01 μM) ( Clc1ccc(-c2nn(CCCN3CCCCCC3)nc2-c2ccccc2)cc1 ) = 36.5

Value of measured Sigma-1 Inhibition percent (0.01 μM) for the entry Cc1nn(CCCN2CCCCC2)nc1-c1ccccc1 : 31.2

Reported Sigma-1 Inhibition percent (0.01 μM) ( c1ccc(-c2cnn(CCCN3CCCCC3)n2)cc1 ) = 43.6

Sigma-1 Inhibition percent (0.01 μM) reported for this molecule Fc1cc(Br)ccc1-c1cnn(CCCN2CCCCC2)n1 : 25.8

Continuing:
So for Clc1ccc(-c2nn(CCCCN3CCCCC3)nc2-c2ccccc2)cc1 , the logged Sigma-1 Inhibition percent (0.01 μM) turned out to be 26.1
